Mean efficacy of compound combined with 1 μM of SNP, [%] for assorted compounds
# target: soluble guanylate cyclase (sGC), α1 and β1 subunits of guanylate cyclase expressed in Sf9 cells (Homo sapiens, UniProt Q02108+Q02153)
# Construct: made in house; host or cells: Sf9 insect cells (baculovirus co-infection)
# Sequence (Q02108 whole entry): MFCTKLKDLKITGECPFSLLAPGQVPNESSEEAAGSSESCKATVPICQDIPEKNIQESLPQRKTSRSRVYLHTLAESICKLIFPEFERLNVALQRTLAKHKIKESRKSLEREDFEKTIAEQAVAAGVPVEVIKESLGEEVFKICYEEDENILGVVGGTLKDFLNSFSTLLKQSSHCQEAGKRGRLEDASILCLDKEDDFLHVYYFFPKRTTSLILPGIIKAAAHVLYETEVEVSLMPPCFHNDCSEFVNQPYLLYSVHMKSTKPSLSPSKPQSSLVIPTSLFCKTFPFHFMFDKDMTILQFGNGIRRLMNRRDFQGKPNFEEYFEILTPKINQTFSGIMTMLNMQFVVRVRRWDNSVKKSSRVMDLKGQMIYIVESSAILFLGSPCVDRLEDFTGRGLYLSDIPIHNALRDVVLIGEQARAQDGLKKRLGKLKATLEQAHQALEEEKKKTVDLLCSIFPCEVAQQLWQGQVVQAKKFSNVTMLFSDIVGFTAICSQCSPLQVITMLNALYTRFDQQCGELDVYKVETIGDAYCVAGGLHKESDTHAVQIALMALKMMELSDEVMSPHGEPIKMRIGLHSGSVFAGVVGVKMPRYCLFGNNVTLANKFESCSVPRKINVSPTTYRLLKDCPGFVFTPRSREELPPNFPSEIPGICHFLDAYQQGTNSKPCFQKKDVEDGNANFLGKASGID
# Sequence (Q02153 whole entry): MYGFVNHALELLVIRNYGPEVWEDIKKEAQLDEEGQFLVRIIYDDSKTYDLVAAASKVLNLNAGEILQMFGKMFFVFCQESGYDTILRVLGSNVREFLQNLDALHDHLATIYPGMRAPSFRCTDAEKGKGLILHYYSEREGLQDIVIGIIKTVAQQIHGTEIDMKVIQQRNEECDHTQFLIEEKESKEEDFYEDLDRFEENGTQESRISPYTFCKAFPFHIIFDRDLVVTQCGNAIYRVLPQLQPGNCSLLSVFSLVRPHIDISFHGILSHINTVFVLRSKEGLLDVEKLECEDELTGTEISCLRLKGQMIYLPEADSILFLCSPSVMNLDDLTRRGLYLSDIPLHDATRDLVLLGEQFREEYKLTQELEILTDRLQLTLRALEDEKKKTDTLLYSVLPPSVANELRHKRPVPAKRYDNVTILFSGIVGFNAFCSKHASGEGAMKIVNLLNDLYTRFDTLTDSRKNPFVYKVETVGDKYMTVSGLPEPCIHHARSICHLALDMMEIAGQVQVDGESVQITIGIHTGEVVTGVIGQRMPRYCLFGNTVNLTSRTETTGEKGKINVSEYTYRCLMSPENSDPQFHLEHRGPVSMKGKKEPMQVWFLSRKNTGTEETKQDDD
# procedure.summary: Guanylate cyclase assay (formation of cyclic GMP from GTP)
# Format: biochemical
# measurement.parameters: compound at 100 μM with 1 μM sodium nitro prusside (SNP); normalized with the activity of 100 μM YC-1 (without SNP) as 100%
observable: Mean efficacy of compound combined with 1 μM of SNP, [%] (%)

# compound, unit.info, value.observed
rows = [
    ("COc1ccc(Sc2ccccc2/C=C/C(=O)NC2CCCCC2O)cc1 (stereo not shown)", "%", 79),
    ("CS(=O)(=O)NCCCCNC(=O)CCc1ccccc1Sc1ccc(Cl)cc1", "%", 11),
    ("Cc1ccc(Sc2ccccc2/C=C/C(=O)NCCCCO)cc1", "%", 212),
    ("O=C(/C=C/c1ccccc1SC1CCCCC1)NC1CCC(O)CC1 (stereo not shown)", "%", 506),
    ("CC(C)CCSc1ccccc1/C=C/C(=O)NCCCCCO", "%", 221),
    ("O=C(/C=C/c1ccccc1SC1CCCC1)NC1CCCCC1O (stereo not shown)", "%", 169),
    ("COc1ccc(Sc2ccccc2/C=C/C(=O)NCCCCO)cc1", "%", 160),
    ("CC(C)CCSc1ccccc1/C=C/C(=O)N1CCC(C(N)=O)CC1", "%", 164),
    ("CNCCCCCNC(=O)CCc1ccccc1Sc1ccc(Cl)cc1", "%", 124),
    ("CCCCCSc1ccccc1/C=C/C(=O)NC1CCC(O)CC1 (stereo not shown)", "%", 278),
]

====

# target: soluble guanylate cyclase (sGC), α1 and β1 subunits of guanylate cyclase expressed in Sf9 cells (Homo sapiens, UniProt Q02108+Q02153)
# Construct: made in house; host or cells: Sf9 insect cells (baculovirus co-infection)
# procedure.summary: Guanylate cyclase assay (formation of cyclic GMP from GTP)
# Type: biochemical
# measurement.parameters: compound at 100 μM without SNP; normalized with the activity of 100 μM YC-1 (without SNP) as 100%; read-out: Mean basal efficacy of compound alone at 100 μM, [%]
Documented Emax at 100 µM across a set of molecules

# molecule, Emax at 100 µM [%]
rows = [
    ("Cc1ccc(Sc2ccccc2/C=C/C(=O)NC2CCC(O)CC2)cc1 (stereo not shown)", 14),
    ("Cc1ccc(Sc2ccccc2/C=C/C(=O)NC2CCCCC2O)cc1 (stereo not shown)", 16),
    ("O=C(/C=C/c1ccccc1SC1CCCC1)NC1CCCCC1O (stereo not shown)", 158),
    ("O=C(/C=C/c1ccccc1SC1CCCC1)NC1CCC(O)CC1 (stereo not shown)", 242),
    ("CCC(O)CNC(=O)/C=C/c1ccccc1Sc1ccc(Cl)cc1 (stereo not shown)", 73),
    ("CC(C)CCSc1ccccc1/C=C/C(=O)NCCCCCO", 162),
    ("Cc1ccc(/C=C/C(=O)NC2CCC(O)CC2)c(Sc2ccc(Cl)cc2)n1 (stereo not shown)", 6),
    ("CC(O)CNC(=O)/C=C/c1ccccc1Sc1ccc(Cl)cc1 (stereo not shown)", 70),
    ("O=C(CCc1cc(F)ccc1Sc1ccc(Cl)cc1)NCCCCO", 0),
    ("Cc1cccc(Sc2ccccc2/C=C/C(=O)NC2CCC(O)CC2)c1 (stereo not shown)", 11),
    ("O=C(/C=C/c1cc(F)ccc1Sc1ccc(Cl)cc1)NCCCCO", 85),
    ("CC(C)CCSc1ccccc1/C=C/C(=O)NCCCO", 200),
    ("CONCCCCNC(=O)CCc1ccccc1Sc1ccc(Cl)cc1", 2),
    ("O=C(CCc1ccccc1Sc1ccc(Cl)cc1)NCCCCO", 4),
    ("COc1cccc(Sc2ccccc2/C=C/C(=O)NC2CCC(O)CC2)c1 (stereo not shown)", 68),
    ("CC(C)CCSc1ccccc1/C=C/C(=O)NC1CCC(O)CC1 (stereo not shown)", 143),
    ("O=C(/C=C/c1ccccc1Sc1ccc(Cl)cc1)NC1CCCCC1O (stereo not shown)", 100),
    ("Cc1ccc(Sc2ncccc2/C=C/C(=O)NC2CCC(O)CC2)cc1 (stereo not shown)", 126),
    ("O=C(/C=C/c1cccnc1Sc1ccccc1)NC1CCC(O)CC1 (stereo not shown)", 37),
    ("O=C(/C=C/c1cccnc1Sc1ccc(Cl)cc1Cl)NC1CCC(O)CC1 (stereo not shown)", 38),
    ("CCNC(=O)/C=C/c1ccccc1Sc1ccc(Cl)cc1", 27),
    ("O=C(/C=C/c1ccccc1SC1CCCCC1)NC1CCCCC1O (stereo not shown)", 174),
]
